Where do these numbers come from? They come from the supplement of paper PMC9170038.

Test system: MS2 coat protein
Assay: apparent KD of MS2 coat protein; designed switch direction (-1 OFF switch, 1 ON switch): 1; higher = weaker reporter binding
Settings: Eterna round: R95; input ligand: FMN 200 uM
Output Criterion met for apparent KD of MS2 coat protein not less than 50 nM; output Criterion not met otherwise.

Use the examples below as a reference point.
[[record]]
sequence_record = "AAGCCUGUAGCACAGGAUAUCCGAGGCAAAACAUGAGGAUCACCCAUGUCAAACGAAAAUCCGAAGGAGAAGGGUGAACAGGCUC [Laarededqu] (puzzle: Same State 2)"
label_class = "Criterion not met"

[[record]]
sequence_record = "UCAAGCGAGAGGCUCGUCUUAUGUAAGGUACAUGAGGAUCACCCAUGUGAGGGACGAUUGAGUUAGAUGGAAUGGAG [JR_SHM208A_Sub033] (puzzle: Sensor for hsa-mir-208a)"
label_class = "Criterion not met"

[[record]]
sequence_record = "GGUGUACAUGAGGAUCACCCAUGUCGACCGCUCACAGGAUAUUUAAUACAAACUGGUAGCGGAGAAGGGUGAGGAA [Oresbeve] (puzzle: Same State 1)"
label_class = "Criterion met"


Threshold query (apparent KD of MS2 coat protein >= 50 nM) on GAUAGACAUGAGGAUCACCCAUGUGACAAAACCACAGGAUAUCACACAGGAGUAACUGCGUGAGAAGGGUGAGACU [Edatinti] (puzzle: Same State 1)
Criterion met

Threshold query (apparent KD of MS2 coat protein >= 50 nM) on CUCAAAACAAGCUGCAGUGUUCGUCUUUAACAUGAGGAUCACCCAUGUAGUAGCCCGGUGGAAGCGCUCGGGCCACC [Antetera] (puzzle: Sensor for hsa-mir-208a)
Criterion not met

* * *

Tested on: K4 kissing-loop RNA reporter;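 further: bound reporter read as fluorescence of individual clusters on recovered sequencing chips by microscopy, with normalized cluster intensities fitted with a binding model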
Test: apparent KD of K4 kissing-loop reporter; higher = weaker reporter binding
Conditions: Eterna round: R107; input ligand: theophylline 20 uM
sequences and their reported apparent KD of K4 kissing-loop reporter
Please respond with the number in nM and leave the unit unwritten.

Worked cases, answers included:
[[record]]
sequence_record = "AAAAUAAACCAGUGAUGUUGGUAUCCGGAUACCAGCGAUAAUCAUCGCCCUUGGCAGCCGCGGACGUACAAAAUAAGUACGUCCU [MatMod 14 - Jieux - Same State - Theophylline A]"
u = "nM"
readout_value = 268

[[record]]
sequence_record = "AAGUGAUGUUGUAGUGAUGUUGUGAUGUUGCAGGAUAUAUAGUGAUGUAGAAGGGUAUGUGCAGUGUUGUUAUUUGAGUGUUGAU [zffdmullin]"
u = "nM"
readout_value = 73.8

[[record]]
sequence_record = "UUUGUAUAGGGAAGGAGCGUGAAUGAGAAAGAAUAUAGUGAUGUUAUAUAGAAGAAAGAAUCACAGGUAGGUCGCCCGGAGGAGG [SSArgB.G]"
u = "nM"
readout_value = 482

[[record]]
sequence_record = "UUGUCCGGGUGAUGGUCAUCACGUGGCGGGCGAGGACCGGUACGGCCGCCACUCGACUUUGCAGUGAUGUUGCAAACCGGACAAU [Exclusion - Tryptophan A (Freestyle 23)]"
u = "nM"
readout_value = 224

[[record]]
sequence_record = "GGCAGUGAUGUUGCCAGUGGCAGAUUGGAAGGAGCGUGGUGAGACACAGGUAGGUCGCUAAUUGAAGUUGCUGUCACUAAAAUGC [whbob_Ex_Arginine_A_2t131]"
u = "nM"
readout_value = 260


What value of measured apparent KD of K4 kissing-loop reporter is listed for GGAGUUACCUGGGAUACCAGUCGGAGUCUCAGAGCUCGGAGUGAUGUUCUGGGAUGUUUCGGCCCUUGGCAGCUCUGGGACUCCU [#2 Exclusion - Theophylline B Attempt #17 (HarryS)] ?
788

What value of measured apparent KD of K4 kissing-loop reporter is listed for GAAAGGAGUGAUGUUCCUGAUAAUUUUAUGAAGGAUAUUCGAUGUGGAAGAAGGUCAUGCAGGCAGCAAGGUUGCGAUCAUAUCA [theeternabot_exclusion_KL_FMN_A_40] ?
185

What value of measured apparent KD of K4 kissing-loop reporter is listed for CAUACGCAUGGAGGAUAUGAGAUUACUCAUAUUAUUUAAUAUUCUCAGUGAUGUUGAGAUAUAAACUCAGAAGGCCAUGUGUAUG [Ex FMN B 1] ?
166

* * *

Tested on: MS2 coat protein
Experiment: apparent KD of MS2 coat protein; designed switch direction (-1 OFF switch, 1 ON switch): 1; higher = weaker reporter binding
Settings: input ligand: FMN 200 uM
sequences and their reported apparent KD of MS2 coat protein
Please respond with the number in nM and leave the unit unwritten.

[[record]]
sequence_record = "GGUCCAGCCUGAGCUGGACAAAAGCAUGUACAUGAGGAUCACCCAUGUUAUGUACAAGCUUUUUGCUCGUCUUAAAA [JL mod - D87 - 10] (Eterna round: R96, puzzle: Sensor for hsa-mir-208a)"
u = "nM"
readout_value = 183

[[record]]
sequence_record = "CCAGGACAUGAGGAUCACCCAUGUGCUUAAUGUGGAGAAUCUCAGGAUAUCAUGAGGAUCACCCAUGAGAAGGGAGAUCCGAGG (Eterna round: R96, puzzle: Same State NG 3)"
u = "nM"
readout_value = 573

[[record]]
sequence_record = "UAAAUAAUGAUAGGAUAUACAUGAGGAAUUCUCGUAGAAGGAUCAUGACAUGAGGAUCACCCAUGUAACGCUCGAAAGAGCGUA [Mat - Same State NG 1 - JL mod - D40] (Eterna round: R96, puzzle: Same State NG 1)"
u = "nM"
readout_value = 556

[[record]]
sequence_record = "GCUCGCACGAUGACCCACAUGAGGAUCACCCAUGUGUGUGGGUAGGAUAUCUAGAUUAAGGAUGUAGAGAAGGGCCGAGCGAGC [SameState NG3 #23] (Eterna round: R96, puzzle: Same State NG 3)"
u = "nM"
readout_value = 576


What value of measured apparent KD of MS2 coat protein is listed for UUAUUAUUUACAUGAGGAUCACCCAUGUUUUUAUGUCUUAGACAGGAUAUAGUAGUCUCGUUUUACUAGAAGGGUCUUUUUAUU [JR_SSNG3_Sub018] (Eterna round: R96, puzzle: Same State NG 3) ?
21.3

* * *

Test system: MS2 coat protein
Assay: apparent KD of MS2 coat protein; designed switch direction (-1 OFF switch, 1 ON switch): -1; higher = weaker reporter binding
Conditions: input ligand: FMN 200 uM
measured.endpoint: apparent KD of MS2 coat protein (nM)
Please respond with the number in nM and leave the unit unwritten.

Worked cases, answers included:
[[record]]
sequence_record = "CGCUGGACAGGAUAUGUUCUUGGGCACUUGAGGAUCACCCAAGUCAUCGGGACAUCAGGCACAGAAGGGUCGUUGG [salish99_ex5_r4_029] (Eterna round: R97, puzzle: Exclusion 5)"
readout_value = 22.2

[[record]]
sequence_record = "GGUGAGCUACUAGGAUAUCUAGGCUAUUUACCUAGAGAAGGAGUCGCCUUCCCUCGCGUAGAUACAUGAGGAUCACCCAUGUAU [Eternabot solution 50] (Eterna round: R96, puzzle: Exclusion NG 1)"
readout_value = 16.9

[[record]]
sequence_record = "GUGUAGUGAGGAUAUACAUGAGGAUCACCCAUGUGAAUAAGAUAGAAUAAGAUAAAGUGUAGAAGGUAUAGUGU [Excluse me!!! 17 - Jieux - Exclusion 3] (Eterna round: R96, puzzle: Exclusion 3)"
readout_value = 60.8

[[record]]
sequence_record = "CCAGACGCUGUGAGGAUAUGAAAAGGUGCUGCUUUUUAGAAGGCACAUGAGGAUCACCCAUGUGGUACCUCGGG [Eternabot (L1) Solution 20] (Eterna round: R97, puzzle: Brourd's mod of Exclusion 4)"
readout_value = 397


Proceed to the following item.
What value of measured apparent KD of MS2 coat protein is listed for ACAUGAGGAUCACCCAUGUCCGGCUGGUCUGUCUCGGCUGUCGAGGAUAUAGCUCGGUAUCCGCGCUAGAAGGCGGGAGCCGGC [Aenatbe mod 90] (Eterna round: R96, puzzle: Exclusion NG 3) ?
98

* * *

System: MS2 coat protein
Experiment: apparent KD of MS2 coat protein; designed switch direction (-1 OFF switch, 1 ON switch): -1; higher = weaker reporter binding
Details: input ligand: microRNA oligo, concentration not stated
sequences and their reported apparent KD of MS2 coat protein
Please respond with the number in nM and leave the unit unwritten.

Worked cases, answers included:
[[record]]
sequence_record = "UACAUGAGGAUCACCCAUGUUUUGUCGUGUAUGGUAUUUAUCUAGGAUAUCAUUGUAUUUAGUUAUGAGAAGGAGAAUAUUAAU [JMF's solution 83] (Eterna round: R96, puzzle: Exclusion NG 3)"
readout_value = 22.9

[[record]]
sequence_record = "UACCUCACUUCUUUGACUCACAUGAGGAUCACCCAUGUAAUAUAGGAUAUGCAUUUUAUUUCUUUGCAGAAGGAUAUUAGUUUU [JR_ExcNG3_Sub089] (Eterna round: R96, puzzle: Exclusion NG 3)"
readout_value = 31.3

[[record]]
sequence_record = "AUCAGCUCGUGAGGAUAUGAACAUGAGGAUCACCCAUGUAAGAUCAAGCUGCUUCGGCAGCAAGUUCAGAAGGCACGAGCUGAU [ENG2/10-A3] (Eterna round: R96, puzzle: Exclusion NG 2)"
readout_value = 84


Any idea what apparent KD of MS2 coat protein came out for AAAAAACAUGAGGAUCACCCAUGUUAGGAUAUGCUAUGGAAAAUAAAAAAUAAACAUAGCAGAAGGAACAAAAA [Mat - Exclusion 1 - Eli mod - D30] (Eterna round: R96, puzzle: Exclusion 1) on MS2 coat protein?
33.2

Any idea what apparent KD of MS2 coat protein came out for UACAUGAGGAUCACCCAUGUUUUGUCGUGUAUGGUAUUUAUCUAGGAUAUCAAUUUAGUUAAUUAUGAGAAGGAGAAUAUUAAU [JMF's solution 75] (Eterna round: R96, puzzle: Exclusion NG 3) on MS2 coat protein?
28.9

Any idea what apparent KD of MS2 coat protein came out for ACAAAUCAUGUAGGAUAUGCGUGGCGAAGCUAUGCAGAAGGACAUGAGGAUCACCCAUGUGCUUCCGUCUGCGUACAGACGGUA [Mat - Exclusion NG 1 - Mod of JL - D16] (Eterna round: R96, puzzle: Exclusion NG 1) on MS2 coat protein?
64.6

Any idea what apparent KD of MS2 coat protein came out for CCUCUACAUGAGGAUCACCCAUGUGAGGAUAUGCGAGGCGCACUCGAUGAGCGCGCCGGUAGAAGGCAUGUGGU [Raraveries] (Eterna round: R96, puzzle: Exclusion 1) on MS2 coat protein?
29.8

Any idea what apparent KD of MS2 coat protein came out for CGUGACUCAGGAUAUCUAUAGUGUCACAUGAGGAUCACCCAUGUCCAGCGAAAGCUGGAGGGAGAAGGGAGUCACG [Fiskers Ex 5 - 43] (Eterna round: R96, puzzle: Exclusion 5) on MS2 coat protein?
71.5

Any idea what apparent KD of MS2 coat protein came out for UGUAGAGUGGUAGGAUAUCCGGCUGUUUCAGUCGGAGAAGGACCACAGUCACUGGGUCCUUAUAUGGGUGACCAUGUAUCUACU [pwkr exNG1 F6.7] (Eterna round: R96, puzzle: Exclusion NG 1) on MS2 coat protein?
305

Any idea what apparent KD of MS2 coat protein came out for CUCCGGCGUGUAGGAUAUGGAUCCGAUUAGGAUCCAGAAGGACAUGAGGAUCACCCAUGUACAUGUCGGCGGUCGUCACCGGGC [salish99_ExNG1_r04_209] (Eterna round: R96, puzzle: Exclusion NG 1) on MS2 coat protein?
14.4

Any idea what apparent KD of MS2 coat protein came out for CAGUACUGAGGAUAUACAUGAGGAUCACCCAUGUAUCCUAGCUAGGAAACUAGCAAAUGUAGAAGGCAGUACUG [Ex3: 818] (Eterna round: R96, puzzle: Exclusion 3) on MS2 coat protein?
53.8

Any idea what apparent KD of MS2 coat protein came out for AACGUACAGCAAAGCUGUACGCGUACAUGAGGAUCACCCAUGUAGGAUAUGGUAGGCAAAGCUUACUAGAAGGAUAGAGUGAUC [Mat - Exclusion NG 3 - Mod of JL - D77] (Eterna round: R96, puzzle: Exclusion NG 3) on MS2 coat protein?
358

Any idea what apparent KD of MS2 coat protein came out for GCAGCUAACACAGAUAUGUGGACAUGAGGAUCACCCAUGUCACAGGAUAUGGACUGGAUUACAGUCCAGAAGGGUGAAUGCUGC [Zipper Style 5] (Eterna round: R96, puzzle: Exclusion NG 3) on MS2 coat protein?
10.8

Any idea what apparent KD of MS2 coat protein came out for ACAUGUCAUCGAGGAUAUUGCACACAUGAGGAUCACCCAUGUAUACGGUUGCUCUUGCGUGAGUUCGAGAAGGCGAUGUACAUU [Ex NG2 #86] (Eterna round: R96, puzzle: Exclusion NG 2) on MS2 coat protein?
198

Any idea what apparent KD of MS2 coat protein came out for CAAACAAAGUCAGGAUAUGUCAAAUUUGUUACGACAGAAGGGACGGGACCGACACUCACAGACAUGAGGAUCACCCAUGUAAAA [Areris] (Eterna round: R96, puzzle: Exclusion NG 1) on MS2 coat protein?
19

Any idea what apparent KD of MS2 coat protein came out for UACAUGAGGAUCACCCAUGUUUUGUCGUGUAUGGUAUUUAUCUAGGAUAUCAAGUUAUUUAUGUAUGAGAAGGAGAAUAUUAAU [JMF's solution 36] (Eterna round: R96, puzzle: Exclusion NG 3) on MS2 coat protein?
26.4

Any idea what apparent KD of MS2 coat protein came out for CCUUAACAUGAGGAUCACCCAUGUGAGGAUAUGAUGCAGCAGUGGUCUACGCUGUGCAUCAGAAGGUACAUGGU (Eterna round: R96, puzzle: Exclusion 1) on MS2 coat protein?
35.9

Any idea what apparent KD of MS2 coat protein came out for UUAAAUCAUGUAGGAUAUGCGUGGCGAAGCUAUGCAGAAGGACAUGAGGAUCACCCAUGUGCUUCCGUCUGCGUACAGAUGGAA [JL Eng1 1.08 mod 3] (Eterna round: R96, puzzle: Exclusion NG 1) on MS2 coat protein?
80.6
